Data provenance: patent US11160766B2

- Tested on: Human peritoneal mesothelial cells (HPMC)
- Experimental Protocol: resazurin cell viability assay on HPMC exposed to PD solutions
- Assay type: cell-based
- Details: Example 4; PD-Solution #3; 72 hours; 3 replicates per concentration
Observed Property: improvement of cell viability of HPMC cells (resazurin to resorufin conversion)

>  <Molecule>
O=C(O)/C=C/c1ccc(O)c(O)c1 [Cafeic Acid, caffeic acid]

>  <Assay Target>
Human peritoneal mesothelial cells (HPMC)

>  <Observed Value>
up to 32%

$$$$
>  <Molecule>
OC[C@H]1O[C@@H](Oc2cc(O)cc(/C=C/c3ccc(O)cc3)c2)[C@H](O)[C@@H](O)[C@@H]1O [Piceid, resveratrol-3-O-β-mono-D-glucoside]

>  <Assay Target>
Human peritoneal mesothelial cells (HPMC)

>  <Observed Value>
up to 32%

$$$$
>  <Molecule>
COc1cc(/C=C/c2ccc(O)cc2)cc(OC)c1 [Pterostilbene]

>  <Assay Target>
Human peritoneal mesothelial cells (HPMC)

>  <Observed Value>
183%

$$$$
